# Test system: Poa annua (annual bluegrass) seeds
# Procedure Details: Standard GAF Bioassay System (Standard Poa Bioassay), seed germination scored after 7 days
# Assay type: in vivo
# Assay Conditions: GAF Conc. 2X plus metal 100 μM
Quantity Measured: POA BIOASSAY SCORES (±Standard Error of the Mean)

Structure: O=S(=O)([O-])[O-].[Cu+2]
Measured Result: 3.00
//
Structure: [Cl][Ni][Cl]
Measured Result: 1.00
//
Structure: [Cl][Cu][Cl]
Measured Result: 2.97
//
Structure: [Ca+2].[Cl-].[Cl-]
Measured Result: 1.00
//
Structure: [Cl-].[Cl-].[Zn+2]
Measured Result: 1.00

Cited source for all entries: patent US20100093536A1
